# key: entry, value: pEC50
Target: T1, human Claudin 18.2 (human, UniProt P56856-2 1-261)
T1 construct: whole, on cells
T1 sequence (looked up): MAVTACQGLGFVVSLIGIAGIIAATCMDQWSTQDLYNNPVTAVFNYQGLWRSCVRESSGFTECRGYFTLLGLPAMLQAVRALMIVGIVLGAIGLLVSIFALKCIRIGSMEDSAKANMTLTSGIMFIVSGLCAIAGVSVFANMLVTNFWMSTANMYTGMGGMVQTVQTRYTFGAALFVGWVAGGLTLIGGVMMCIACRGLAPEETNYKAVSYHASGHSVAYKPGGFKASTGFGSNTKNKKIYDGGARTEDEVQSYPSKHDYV
Assay: flow cytometry (iQue) on cells, antibody from 100 nM in 5-fold steps; cell line not named in Example 5
# reply with the number alone; pEC50 is -log10 of concentration in mol/L

Recorded results for 2 binders are shown here.
{"Binder": "18D10.V14 (antibody, V domains shown, Humanized; also called 18D10VLv1 + 18D10VHv4) VH: QVQLQESGPGLVKPSETLSLTCTVSGGSISSNYAWNWIRQPPGKGLEWIGYINYSGYTNYNPSLKSRVTISRDTSKNQFSLKLSSVTAADTAVYYCATSYYGNSFIYWGQGTLVTVSS VL: DIVMTQSPDSLAVSLGERATINCKSSQSLLNSGNQKNYLTWYQQKPGQPPKLLIYWASTRESGVPDRFSGSGSGTDFTLTISSLQAEDVAVYYCQNAYSFPWTFGQGTKVEIK", "pEC50": 8.76}
{"Binder": "h15F9.v15r1 (antibody, V domains shown, Humanized; also called 15F9VLv1 + 15F9VHv5r1) VH: QVQLVQSGSELKKPGASVKVSCKASGYTFTNYGINWVRQAPGQGLEWMGWINPNTGETTYAEEFKGRFVFSLDTSVSTAYLQISSLKAEDTAVYFCARLYYGNRFDSWGQGTLVTVSS VL: DIVMTQSPDSLAVSLGERATINCKSSQSLLNSGNQRNYLTWYQQKPGQPPKLLIYWASTRESGVPDRFSGSGSGTDFTLTISSLQAEDVAVYYCQNAYYYPLTFGGGTKVEIK", "pEC50": 8.60}

Moving on to the next binder.
The recorded pEC50 for entry h15F9.v26 (antibody, V domains shown, Humanized; also called 15F9VLv2 + 15F9VHv6) VH: QIQLVQSGSELKKPGASVKVSCKASGYTFTNYGINWVRQAPGQGLEWMGWINPGTGETTYAEGFTGRFVLSWDTSVSTAYLQISSLKAEDTAVYFCARLYYGNRFDSWGQGTLVTVSS VL: DIVMTQSPDSLAVSLGERATINCKSSQSLLNSGNQRNYLAWYQQKPGQPPKLLIYWASTRESGVPDRFSGSGSGTDFTLTISSLQAEDVAVYYCQQAYYYPLTFGGGTKVEIK equals 8.99
